Test system: HT29 colon
assay remarks: NCI-60 one-dose screen, 48 h
setup conditions: 10 µM unless noted
Method: Growth inhibition of the HT29 human tumor cell line is measured as a screen for anti-cancer activity. Cells are grown in 96 well plates and exposed to the test compound for 48 hours. Compounds are tested at a single concentration, which is 10^-5 M for most compounds. The reported endpoint is percent growth (GI% or GIPRCNT), where numbers from 0 - 100% represent growth inhibition, and numbers from -100% - 0 represent cell death. For example, a value of 40 represents 60% growth inhibition. […]
About 83,000 compounds went through this panel and 20% of them were active in at least one assay; those are over-represented in the sample as a whole. The source made the active and inactive calls. How the source made its calls: active means growth percent below 10; inactive means the rest.
Outcomes: active, inactive

molecule=COc1cc(-c2cc(-c3nc4ccccc4[nH]3)[nH]n2)cc(OC)c1OC assayed_system="HT29 colon" label=inactive
molecule=COc1cc2[nH]c(C(=O)c3cc(OC)c(OC)c(OC)c3)c(N)c2cc1C#CCO assayed_system="HT29 colon" label=active
molecule=O=c1[nH]ncc(Br)c1Br assayed_system="HT29 colon" label=active
molecule="COc1cccc2c1C(=O)c1c(O)c3c(c(O)c1C2=O)C[C@@](O)(C(=O)CO)C[C@@H]3OC1C[C@H](N)[C@H](O)[C@H](C)O1 (some centres undefined)" assayed_system="HT29 colon" label=active
molecule=O=C1OC(c2ccc(Cl)c(Cl)c2)=C/C1=C/c1cccc([N+](=O)[O-])c1 assayed_system="HT29 colon" label=inactive
molecule="Nc1c2c(nc3ccc(Cl)cc13)CC(c1ccccc1)CC2=O (centres undefined)" assayed_system="HT29 colon" label=inactive
molecule=CCCCC[C@H]1C/C=C2/C(=O)C(Cl)=C[C@@H]2C/C=C\CCCC(=O)O[C@@H](CCCCC)C/C=C2/C(=O)C(Cl)=C[C@@H]2C/C=C\CCCC(=O)O1 assayed_system="HT29 colon" label=active
molecule=Oc1cccc2oc(=S)[nH]c12 assayed_system="HT29 colon" label=inactive
molecule=COc1cccc(-c2nn(-c3ccccc3)cc2-c2ccnc(NCCCNS(=O)(=O)c3ccccc3)c2)c1 assayed_system="HT29 colon" label=inactive

====

System: KM12 colon
assay remarks: NCI-60 one-dose screen, 48 h (100 = growth as untreated, 0 = no growth, -100 = all killed)
setup conditions: 10 µM unless noted
About 83,000 compounds went through this panel and 20% of them were active in at least one assay; those are over-represented in the sample as a whole. Activity calls are given as the source filed them. How the source made its calls: active means growth percent below 10; inactive means the rest.
reported endpoint: growth

compound_smiles=CCOc1ccc(NC(=O)c2ccccc2-c2ccccc2C(=O)O)cc1 reported_endpoint=growth result="110% (inactive)"
compound_smiles=N=C(N)c1ccc(S(N)(=O)=O)cc1 reported_endpoint=growth result="106% (inactive)"
compound_smiles=O=C(NO)c1ccc(Cn2c(=O)n(CCc3ccc(O)cc3)c(=O)c3ccccc32)cc1 reported_endpoint=growth result="22.7% (inactive)"
compound_smiles=CC1(n2nnnc2N2CCCN(c3ncccc3N)CC2)CCC1 reported_endpoint=growth result="102% (inactive)"
compound_smiles=[B-][N+](CC)(CC)c1ccccc1 reported_endpoint=growth result="105% (inactive)"
compound_smiles=CN1CCN(CC#CCn2c3c(c4ccccc42)C[C@]2(C)[C@H]4CC[C@@H]5[C@H]6[C@H]7OC(=O)[C@@]6(CCC7(C)C)CC[C@@]5(C)[C@]4(C)CC[C@H]2C3(C)C)CC1 reported_endpoint=growth result="93.7% (inactive)"

====

Test system: SNB-19 CNS
assay remarks: NCI-60 one-dose screen, 48 h (100 = growth as untreated, 0 = no growth, -100 = all killed)
setup conditions: 10 µM unless noted
About 83,000 compounds went through this panel and 20% of them were active in at least one assay; those are over-represented in the sample as a whole.
reported endpoint: growth (%)

molecule=S=c1[nH]nc2ccccn12 reported_endpoint=growth numeric_result=110
molecule=Oc1cccc2ccc(N/N=C/c3cc(CN4CCCCC4)c(O)c4ncccc34)nc12 reported_endpoint=growth numeric_result=19.9
molecule=Oc1ccccc1/C=N\NC(=S)Nc1ccc(F)cc1 reported_endpoint=growth numeric_result=36
molecule=C=C(C)[C@@H]1CC[C@]2(C)[C@H](CC=C3[C@@H]4CC(C)(C)CC[C@]4(C(=O)OC)CC[C@]32C)[C@@]1(C)CC/C(N)=N/O reported_endpoint=growth numeric_result=67.9
molecule="CCC(CC)C(=O)OC(C)COc1ccc(C(C)(C)C)cc1 (stereo not given)" reported_endpoint=growth numeric_result=103
molecule=Clc1cc(Cl)cc(Nc2ccc3c(OCCCN4CCOCC4)cccc3n2)c1 reported_endpoint=growth numeric_result=31.7
molecule=COC(=O)[C@]12CC[C@@H](C)[C@H](C)[C@@H]1C1=CC[C@@H]3[C@@]4(C)CC(=O)[C@H](OC(=O)c5ccco5)[C@@]5(C)COC(=C45)C[C@@]3(C)[C@]1(C)CC2 reported_endpoint=growth numeric_result=40.4
molecule=COc1cc(OC)c2c(c1)c1nc3cc(C)c(C)cc3nc1n2CCN(C)C reported_endpoint=growth numeric_result=89.1
molecule=Cc1cc(C=O)c(C)c2c1[nH]c1ccccc12 reported_endpoint=growth numeric_result=94.6
molecule=Cc1nn(-c2ccc(Cl)cc2)c(=O)n1CCn1cnc2ccccc21 reported_endpoint=growth numeric_result=113
molecule="N#CC1=C(N)Oc2c(c(N)nn2-c2ccccc2)C1c1ccc(Cl)cc1 (stereo not given)" reported_endpoint=growth numeric_result=94.7
molecule=COc1cc(/C=N/NC(=S)NNC(=S)NC2CCCCC2)cc(OC)c1OC reported_endpoint=growth numeric_result=98.3
molecule=Cn1c(=O)c2c(nc(Br)n2CC(=O)Nc2ccc(F)cc2)n(C)c1=O reported_endpoint=growth numeric_result=97.5
molecule="Cc1ccc(-c2nc3ccc(Cl)cc3c(=O)n2N2C(=O)CSC2c2ccccc2Cl)cc1 (stereo not given)" reported_endpoint=growth numeric_result=75.2
molecule=Cc1ccc(-c2nn(Cc3cn(-c4cc(C)nc5ccccc45)nn3)c3ncnc(N)c23)cc1 reported_endpoint=growth numeric_result=53.2
molecule=COc1ccc2c(c1)c(-c1nc(-c3c[nH]c4ncccc34)cs1)cn2C reported_endpoint=growth numeric_result=92.7
molecule=C=C(C)[C@@H]1CC[C@]2(C(=O)NNC(=O)c3cccnc3)CC[C@]3(C)[C@H](CC[C@@H]4[C@@]5(C)CCCNC(C)(C)[C@@H]5CC[C@]43C)[C@@H]12 reported_endpoint=growth numeric_result=91.2
molecule=CC(C)c1cc(C(=O)O)c(O)c(C(C)C)c1.CC(C)c1cc(C(=O)O)c(O)c(C(C)C)c1.[Mn] reported_endpoint=growth numeric_result=91.6
molecule=O=C1CNCCN1 reported_endpoint=growth numeric_result=104
molecule=Cc1cccc(C)c1NCc1nc(-c2ccccc2)n[nH]1 reported_endpoint=growth numeric_result=94.7

====

Tested on: HT29 colon
assay remarks: NCI-60 one-dose screen, 48 h
setup conditions: 10 µM unless noted
The panel holds about 83,000 compounds, 20% with a hit somewhere; the sample as a whole holds those more often. Calls of active or inactive are those of the source. Rule for the calls: active = growth percent below 10; inactive = the rest.
Outcomes: active, inactive

compound=O=C(NO)c1ccc(Cn2c(=O)n(-c3ccccc3)c(=O)c3ccccc32)cc1 label=inactive
compound=COc1ccc2c(c1)C/C(=C\c1cc(-c3ccc4c(c3)OCO4)n[nH]1)C2=O label=inactive
compound=Cc1cccc2c1NC(=O)[C@@]21[C@H](C(=O)c2ccccc2)[C@]2(C(=O)Nc3ccccc32)[C@H]2CCCN21 label=active
compound=Cn1cccc1/C=C1/SC(=S)N(CCc2ccc(O)cc2)C1=O label=inactive
compound="CCCCC(=O)OC1CCCCC1C (stereo not given)" label=inactive
compound=O=C1CCCC=CC[C@H]2C=C(Cl)C(=O)C2=CC[C@H](CCCCC(F)(F)F)OC(=O)CCCC=CC[C@H]2C=C(Cl)C(=O)C2=CC[C@H](CCCCC(F)(F)F)OC(=O)CCCC=CC[C@H]2C=C(Cl)C(=O)C2=CC[C@H](CCCCC(F)(F)F)O1 label=inactive
compound=CSc1ccc(N(C)c2nc(C)nc3c2CCC3)cc1 label=active
compound=Brc1cnc2[nH]cc(-c3nnc(-c4ccccc4)o3)c2c1 label=inactive
compound=C=C(C)[C@@H]1CC[C@]2(C(=O)NNC(=O)c3cccnc3)CC[C@]3(C)[C@H](CC[C@@H]4[C@@]5(C)CCCNC(C)(C)[C@@H]5CC[C@]43C)[C@@H]12 label=inactive
compound="CC(=O)OC(C)COc1ccc(-c2ccccc2)cc1 (stereo not given)" label=inactive
compound=C[C@@H](C(=O)O)c1ccc2c3cc(Cl)ccc3n(Cc3cc(=O)oc4ccc(Cl)cc34)c2c1 label=inactive
compound=C=C(C)[C@@H]1CC[C@]2(CN)CC[C@]3(C)[C@H](CC[C@@H]4[C@@]5(C)CCC(=O)NC(C)(C)[C@@H]5CC[C@]43C)[C@@H]12 label=inactive
compound=COc1ccc2c(c1)C/C(=C\c1cc(-c3cc(OC)c(OC)c(OC)c3)n[nH]1)C2=O label=inactive
compound=COc1ccc2nc(-c3cc(-c4cc(OC)c(OC)c(OC)c4)n[nH]3)[nH]c2c1 label=inactive
compound=Cn1c(/C(C#N)=C/c2ccc3ccccc3c2)cc2ccccc21 label=inactive
compound=COC(=O)[C@]12CC[C@@H](C)[C@H](C)[C@@H]1C1=CC[C@@H]3[C@@]4(C)C[C@@H](O)[C@H](O)[C@@](C)(CO)C4=CC[C@@]3(C)[C@]1(C)CC2 label=active
compound=Cc1ccc(S(=O)(=O)Nc2ccc(-c3cc(-c4cccc(F)c4)c(C#N)c(=O)[nH]3)cc2)cc1 label=inactive
compound=CCN1CCN(C(=O)[C@]23CCC(C)(C)C[C@H]2C2=CC[C@@H]4[C@@]5(C)CC/C(=N/O)C(C)(C)[C@@H]5CC[C@@]4(C)[C@]2(C)CC3)CC1 label=inactive
compound=COc1ccc(/C=C/C(=O)c2ccc([N+](=O)[O-])cc2)cc1 label=inactive
compound=Cn1cc(-c2csc(-c3cn(CCNC(=O)OC(C)(C)C)c4ccccc34)n2)c2cccnc21 label=inactive
compound=CN1CCN(c2ccc3nc(-c4[nH]ncc4Nc4ncnc5c4OCCCN5)[nH]c3c2)CC1 label=active
compound=CC(C)=CCC[C@](C)(O)[C@H]1CC[C@]2(C)[C@@H]1CC[C@@H]1[C@@]3(C)C/C(=C/c4cccc([N+](=O)[O-])c4)C(=O)C(C)(C)[C@@H]3CC[C@]12C label=inactive
compound="O=C(NC(Cc1cn(Cc2ccccc2)cn1)C(=O)O)OCC1c2ccccc2-c2ccccc21 (stereo not given)" label=inactive
compound=CC(C)(C)n1cc(-c2ccnc(NCCCNS(=O)(=O)c3ccc(Cl)cc3)c2)c(-c2cccc(F)c2)n1 label=inactive
compound=CC(C)=CCC/C(C)=C/CC/C(C)=C/CSC[C@H](NC(=O)CCCCCN1CCN(C)CC1)C(=O)NC1CCCCCC1 label=active
compound=COc1ccc(C(=O)c2ccc(C)cc2)c(OC)c1OC label=inactive
compound=O=C1/C(=C\c2ccco2)SC(=S)N1CCc1ccc(O)cc1 label=inactive
compound=N=C(N)c1ccc(S(N)(=O)=O)cc1 label=inactive
compound=O=S(=O)(NCCNc1cc(-c2cn(-c3ccccc3)nc2-c2cccc(O)c2)ccn1)c1cccc(F)c1 label=active
compound=CN1CCN(c2nc(-c3cccc4ccccc34)nc3sc4c(c23)CCCCCC4)CC1 label=inactive
compound=C/C(=N/NC(N)=S)C(=O)O label=inactive
compound=CCCCCCCN(CCCCCCC)C(=N)c1ccnc2ccccc12 label=active
compound=COc1cc(C(=O)/C=C/c2cc(-c3ccc4c(c3)OCO4)n[nH]2)cc(OC)c1OC label=active
compound=CC1(C)C=CC[C@]2(C)[C@H]3CC[C@@H]4[C@H]5[C@H](C(=O)/C=C/c6cccnc6)CC[C@]5(CO)CC[C@@]4(C)[C@]3(C)CC[C@@H]12 label=active
compound="Cc1ccc(NC2CC(=O)N(c3c(C)cc(C)cc3C)C2=O)c(C)c1 (stereo not given)" label=inactive
